System name: T1, CGH-1_(248–420) 4A mutant (His269, Cys270, Thr273 and Leu274 to Ala) (C. elegans, UniProt Q95YF3 248-420, His269 to Ala | Cys270 to Ala | Thr273 to Ala | Leu274 to Ala)
T1 construct: Mutant of m1 made with the MutanBEST kit; also called four-alanine mutant; source: E. coli Gold (DE3), purified (Ni-chelating resin, SEC Superdex 75)
T1 sequence (looked up): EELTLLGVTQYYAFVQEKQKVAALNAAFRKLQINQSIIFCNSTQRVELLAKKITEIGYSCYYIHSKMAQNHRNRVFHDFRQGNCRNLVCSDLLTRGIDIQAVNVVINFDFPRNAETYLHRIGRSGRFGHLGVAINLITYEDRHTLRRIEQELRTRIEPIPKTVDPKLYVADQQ
Experimental details: ITC; ligand (peptide or CAR-1 fragment, 0.5 mM) injected into CGH-1_(248-420) or mutant (0.05 mM) in the cell; 20 °C; Buffer B (20 mM Tris-HCl pH 7.5, 150 mM NaCl); one-binding-site model
Experimental context: both partners purified
Observed property: pKd
A value of pKd is the negative decimal logarithm of a concentration given in moles per litre.

Given the binder LADPIDFDLDSDFDFAENLKLFEKDENDDQYYETVEK (Enhancer of decapping-3 (EDC-3, also called LSm16), C. elegans, FDF fragment, residues 235-271; Printed with free NH2 and COOH ends; also called EDC-3 peptide; EDC-3 FDF-FEK peptide; source: synthetic peptide (GL Biochem, Shanghai)) [EDC-3 FDF peptide (EDC-3_(235–271))] , what is its reported pKd?
5.06
